Hey, just so you know, these numbers are from paper PMC11882969.

Molecular target: hCB1 (Homo sapiens)
Sequence (P21554 whole entry): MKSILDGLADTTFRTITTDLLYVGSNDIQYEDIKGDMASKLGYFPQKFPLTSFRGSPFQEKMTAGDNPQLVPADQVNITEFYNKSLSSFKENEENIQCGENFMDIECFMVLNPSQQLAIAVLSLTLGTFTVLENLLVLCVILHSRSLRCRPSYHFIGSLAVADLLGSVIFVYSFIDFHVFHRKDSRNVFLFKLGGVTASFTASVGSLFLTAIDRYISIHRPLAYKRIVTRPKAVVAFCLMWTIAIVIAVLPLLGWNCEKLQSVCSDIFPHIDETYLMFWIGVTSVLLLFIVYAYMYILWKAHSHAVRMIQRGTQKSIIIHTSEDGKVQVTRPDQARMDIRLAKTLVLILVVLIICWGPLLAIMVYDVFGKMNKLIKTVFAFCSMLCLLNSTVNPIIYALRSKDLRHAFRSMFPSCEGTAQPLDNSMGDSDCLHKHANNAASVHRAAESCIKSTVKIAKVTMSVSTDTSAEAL
Experiment: bioSensAll ebBRET signaling profiling, hCB1
Type: cell-based
Design: host or cells: HEK293SL cells, transient PEI transfection
Conditions: Log [Compound] (M) -9.61989; single replicate values, FigS6a
Each entry belongs to exactly one class, chosen by where its GoB hCB1 falls: lower bin = under -4, middle bin = from -4 up to -0.7, upper bin = -0.7 and over

[
  {
    "compound": "COC(=O)[C@@H]1[C@@H]2CCC[C@@H]2CN1C(=O)c1cc(C)n(-c2cccc(Cl)c2)n1 (racemic) [‘10010]",
    "target_entity": "hCB1 (Homo sapiens)",
    "label": "lower bin"
  },
  {
    "compound": "Cc1cc(C(=O)N2CC3(CCC3)[C@H]2[C@@H]2CCCO2)nn1-c1cccc(C(F)(F)F)c1 [‘5490]",
    "target_entity": "hCB1 (Homo sapiens)",
    "label": "upper bin"
  },
  {
    "compound": "Cc1nc(CC2CC2)oc1-c1nc(Cc2cc3c(cc2Br)OCO3)no1 [‘7019]",
    "target_entity": "hCB1 (Homo sapiens)",
    "label": "lower bin"
  },
  {
    "compound": "Cc1cc(C(=O)NC(c2ccco2)c2ccco2)nn1-c1cccc(C(F)(F)F)c1 [‘1090]",
    "target_entity": "hCB1 (Homo sapiens)",
    "label": "middle bin"
  },
  {
    "compound": "CC(=O)C(c1cccs1)N(C)C(=O)c1cc(C)n(-c2cccc(C(F)(F)F)c2)n1 (stereo not shown) [‘6829]",
    "target_entity": "hCB1 (Homo sapiens)",
    "label": "middle bin"
  },
  {
    "compound": "COC(=O)C(NC(=O)c1cc(C)n(-c2cccc(F)c2)n1)c1cccs1 (stereo not shown) [‘51486]",
    "target_entity": "hCB1 (Homo sapiens)",
    "label": "middle bin"
  }
]

Category of Cc1nn(Cc2ccc(Cl)cc2)c(C)c1C(=O)OCC1CSc2ccccc2O1 (stereo not shown) [‘5463] , please. lower bin

Category of COC(=O)[C@@H]1[C@@H]2CCC[C@@H]2CN1C(=O)c1cc(C)n(-c2cccc(C(F)(F)F)c2)n1 [‘6439] , please. upper bin

Category of Cn1nc(-c2nnc(C(C)(C)Oc3ccc(C(F)(F)F)cc3)o2)c2ccccc2c1=O [‘2153] , please. lower bin

Category of Cc1cc(C(=O)N(C)C(c2ccccc2)c2ccco2)nn1-c1cccc(C(F)(F)F)c1 (stereo not shown) [‘1082] , please. middle bin

Category of COC(=O)C(NC(=O)c1cc(C)n(-c2cccc(C(F)(F)F)c2)n1)c1cccs1 (stereo not shown) [‘60154] , please. upper bin

Category of Cc1c(C(=O)OCC2CSc3ccccc3O2)cnn1Cc1ccccc1 (stereo not shown) [‘7800] , please. lower bin

Category of Cc1cc(C(=O)NC(c2ccccc2)c2ccco2)nn1-c1cccc(C(F)(F)F)c1 (stereo not shown) [‘1081] , please. upper bin

Category of Cc1cc(C(=O)N2CC3(CCC3)[C@@H]2[C@@H]2CCCO2)nn1-c1cccc(C(F)(F)F)c1 [‘3386] , please. middle bin

Category of Cn1nc(-c2nnc(C(C)(C)Oc3ccc(Cl)cc3)o2)c2ccccc2c1=O [‘0450] , please. lower bin
